System: PC-3 prostate
run_description: NCI-60 one-dose screen, 48 h (100 = growth as untreated, 0 = no growth, -100 = all killed)
applied_conditions: 10 µM unless noted
This is part of a sample that, as a whole, favours compounds with a hit. Of some 83,000 tested, about 20% had one in any assay. Active and inactive are the calls of the source. How the source made its calls: active means growth percent below 10; inactive means the rest.

smiles_data	measurement_target	growth
COC(=O)[C@]12CC[C@@H](C)[C@H](C)[C@@H]1C1=CC[C@@H]3[C@@]4(C)C(c5ncon5)=C[C@@](C)(CO)C4=CC[C@@]3(C)[C@]1(C)CC2	PC-3 prostate	-12.7% (active)
Cn1cc(-c2nc(-c3cn(C)c4ncccc34)cs2)c2cc(F)ccc21	PC-3 prostate	47.1% (inactive)
O=S(=O)(NCCNc1cc(-c2cn(-c3ccccc3)nc2-c2cccc(O)c2)ccn1)c1ccc(F)cc1	PC-3 prostate	15.1% (inactive)
COc1cc2[nH]c(C(=O)c3cc(OC)c(OC)c(OC)c3)c(N)c2cc1C#CCO	PC-3 prostate	10.6% (inactive)

====

Tested on: HCC-2998 colon
run_description: NCI-60 one-dose screen, 48 h
applied_conditions: 10 µM unless noted
About 83,000 compounds went through this panel and 20% of them were active in at least one assay; those are over-represented in the sample as a whole. Active and inactive are the calls of the source. The calls were made as follows: active = growth percent below 10; inactive = the rest.
Outcomes: active, inactive

compound	answer_label
CCCNc1nc(N(C)O)nc(N(C)O)n1	inactive
N#CC1C(=N)Cc2ccccc2-c2ccccc21 (configuration not stated)	inactive
O=c1[nH]c(=S)[nH]c2nc[nH]c12	inactive
C[C@]12CC[C@@H]3c4ccc(O)cc4CC[C@H]3[C@@H]1C[C@H](O)[C@@H]2O	inactive
COc1ccc(/C=C2\N=C(c3ccccc3)N(c3cc(OC)c(OC)cc3C(=O)N3N=C(C)CC3=O)C2=O)cc1	inactive
C/C(=N\Nc1cc(C)c2cc(C)ccc2n1)c1ccccn1	active
Fc1ccc2[nH]cc(-c3nc(-c4c[nH]c5ncccc45)cs3)c2c1	inactive
N#CCCCCCn1c2ccccc2c2c3c(c4c5ccccc5n(CCCCCC#N)c4c21)C(=O)N(O)C3=O	inactive
CC/C(=N/NC(N)=O)c1ccccc1	inactive
O=[N+]([O-])c1ccc(N/N=C(\C(=N/Nc2ccc([N+](=O)[O-])cc2[N+](=O)[O-])c2ccccc2)c2ccccc2)c([N+](=O)[O-])c1	inactive
CCN(CC)c1ccc(/C=C/c2cc(C)c3ccccc3n2)cc1	inactive
COCCNC1=C(Cl)C(=O)c2ccccc2C1=O	inactive
O=c1c(CNc2ccc(S(=O)(=O)Nc3nccs3)cc2)coc2ccccc12	inactive
COc1ccc2c(c1)c(-c1nc(-c3c[nH]c4ncccc34)cs1)cn2CCNC(=O)OC(C)(C)C	inactive
CC[C@]12C=CCN3CC[C@@]4(c5cc([C@H]6CCC(=O)N6)c(OC)cc5N(C)[C@H]4[C@@](O)(C(=O)OC)[C@@H]1OC(C)=O)[C@@H]32	inactive
COc1cc(/C=N/Nc2ncnc3c2c(C)nn3-c2ccc(F)cc2)ccc1O	inactive
COc1cc(/C=C/c2cc(/C=C/c3ccc(O)c(OC)c3)n(-c3ccccc3)c(=O)n2)ccc1O	inactive
COc1ccc(/C=C(\C#N)c2cc3ccccc3n2S(C)(=O)=O)cc1	inactive
O=C(CCCCCn1c2ccccc2c2c3c(c4c5ccccc5[nH]c4c21)C(=O)N(O)C3=O)N1CCOCC1	inactive
CC1(C)[C@@H](O)CC[C@]2(C)[C@H]3CC[C@@H]4[C@H]5[C@H](C(=O)/C=C/c6ccc(C(F)(F)F)cc6)CC[C@]5(CO)CC[C@@]4(C)[C@]3(C)CC[C@@H]12	inactive
C=C1C(=O)O[C@H]2[C@H]1CC/C(COC(=O)NCc1cc3ccccc3[nH]1)=C\CC[C@@]1(C)O[C@@H]21	inactive
Cc1ccnc2c(OCc3ccccc3)cccc12	inactive
Nc1c(Cl)cc(N=Nc2ccccc2)cc1Cl	inactive
CC(C)=CCC/C(C)=C/CC/C(C)=C/CSC[C@H](NC(=O)CCCCCN1CCN(C)CC1)C(=O)NC1CCCCCC1	inactive
Cc1cc(N(CCNc2ccnc3cc(Cl)ccc23)Cc2ccco2)nc(Cl)n1	inactive
N#CC1=C(N)Oc2c(c(N)nn2-c2ccccc2)C1c1ccc(Cl)cc1 (configuration not stated)	inactive
NCCn1cc(-c2nc(-c3c[nH]c4ncccc34)cs2)c2cc(F)ccc21	inactive
CC(=O)O[C@H]1CC[C@]2(C)[C@H]3CC=C4[C@@H]5[C@H](C)[C@@H](C)CC[C@]5(C(=O)NCCNCCNCCN)CC[C@@]4(C)[C@]3(C)CC[C@H]2C1(C)C	inactive
CC(Cc1ccco1)C(=O)NC(N)=O (configuration not stated)	inactive
CC(=O)Cc1nsc(NC(=O)c2ccoc2COc2ccccc2)n1	inactive
C=C(C)[C@@H]1CC[C@]2(/C=N/Nc3ccncc3)CC[C@]3(C)[C@H](CC[C@@H]4[C@@]5(C)CCCNC(C)(C)[C@@H]5CC[C@]43C)[C@@H]12	inactive
Cc1ccc(-c2nn(Cc3cn(-c4cc(C)nc5ccccc45)nn3)c3ncnc(N)c23)cc1	inactive
Cn1cc(-c2csc(-c3cn(CCCN4CCCCC4)c4ccc(Br)cc34)n2)c2cccnc21	inactive
COc1cc(-c2cc3cc(O)ccc3oc2=O)cc(OC)c1OC	inactive
O=C1NC(c2ccc(Cl)c(Cl)c2)=C/C1=C\c1ccccc1	inactive
C=C(C)[C@@H]1CC[C@]2(C)[C@H](CC=C3[C@@H]4CC(C)(C)CC[C@]4(C(=O)OC)CC[C@]32C)[C@@]1(C)CC/C(N)=N/O	active
COc1cc2[nH]c(C(=O)c3cc(OC)c(OC)c(OC)c3)c(N)c2cc1C#CC1CC1	inactive

====

Tested on: A549/ATCC NSCLC
run_description: NCI-60 one-dose screen, 48 h (100 = growth as untreated, 0 = no growth, -100 = all killed)
applied_conditions: 10 µM unless noted
About 83,000 compounds went through this panel and 20% of them were active in at least one assay; those are over-represented in the sample as a whole.

smiles_data	growth / %
O=c1[nH]c2c3ccncc3cc(-c3cccc(Cl)c3)c2c2cnccc12	27.4
COc1ccc2nc(-c3cc(-c4cc(OC)c(OC)c(OC)c4)n[nH]3)[nH]c2c1	6.33
COc1cc2nc(Cl)nc(Nc3cccc(C(=O)/C=C/c4ccccc4)c3)c2cc1OC	74.5
C=CC(=O)N[C@H](Cc1ccc(-c2cc(Cl)cc(Cl)c2)cc1)[C@H](O)[C@@H](O)C(=O)O	72
COc1ccc(-c2cc(-c3c(C)oc4cc5occc5c(OC)c4c3=O)nc(N)c2C#N)cc1OC	57.2
O=[N+]([O-])c1cc(S(=O)(=O)c2ccc(F)c([N+](=O)[O-])c2)ccc1F	102

====

System: NCI-H522 lung
run_description: NCI-60 one-dose screen, 48 h
applied_conditions: 10 µM unless noted
About 83,000 compounds went through this panel and 20% of them were active in at least one assay; those are over-represented in the sample as a whole. Activity calls are given as the source filed them. Rule for the calls: active = growth percent below 10; inactive = the rest.
Outcomes: true = active, false = inactive

compound	answer_label
CCCCC(=O)OC1CCCCC1C (stereo unspecified)	false
COC(=O)[C@]12CC[C@@H](C)[C@H](C)[C@@H]1C1=CC[C@@H]3[C@@]4(C)C[C@@H](OC(C)=O)[C@H](O)[C@@](C)(CO)[C@@H]4[C@H](O)C[C@@]3(C)[C@]1(C)CC2	true
NC(=O)[C@@H]1CC2CCC1C2 (stereo partly specified)	false
Cc1cc(N(CCNc2ccnc3cc(Cl)ccc23)Cc2ccco2)nc(Cl)n1	true
Fc1cccc(-c2[nH]nc3nc(Nc4cccnc4)sc23)c1	false
COc1cccc(-c2nn(-c3ccccc3)cc2-c2ccnc(NCCNS(=O)(=O)c3cccc(F)c3)c2)c1	true

====

System: A498 renal
run_description: NCI-60 one-dose screen, 48 h (100 = growth as untreated, 0 = no growth, -100 = all killed)
applied_conditions: 10 µM unless noted
Method: Growth inhibition of the A498 human tumor cell line is measured as a screen for anti-cancer activity. Cells are grown in 96 well plates and exposed to the test compound for 48 hours. Compounds are tested at a single concentration, which is 10^-5 M for most compounds. The reported endpoint is percent growth (GI% or GIPRCNT), where numbers from 0 - 100% represent growth inhibition, and numbers from -100% - 0 represent cell death. For example, a value of 40 represents 60% growth inhibition. […]
About 83,000 compounds went through this panel and 20% of them were active in at least one assay; those are over-represented in the sample as a whole.
# if value of growth reaches 70%, tag true; if it stays below, tag false

molecule	measurement_target	answer_label
COc1cc(/C=C/c2cc(/C=C/c3ccc(O)c(OC)c3)n(-c3ccccc3)c(=O)n2)ccc1O	A498 renal	true
CC(C)C[C@@H](NC(=O)[C@@H](Cc1ccccc1)NC(=O)c1cnccn1)B1O[C@H]2[C@H](O)[C@@H](C(=O)NCCCC[C@@H]3NC(=O)[C@@H](Cc4ccccc4)NC(=O)[C@H](CC(=O)O)NC(=O)CNC(=O)[C@H](CCCN=C(N)N)NC3=O)O[C@@H](CN)[C@H]2O1	A498 renal	false
Cn1cc(-c2csc(-c3cn(CCCN4CCCCC4)c4ccc(Br)cc34)n2)c2cccnc21	A498 renal	true
Nc1ccccc1NC(=O)c1ccc(CN2CCC/C(=C\c3ccccn3)C2=O)cc1	A498 renal	false
C=C(C)[C@@H]1CC[C@]2(C(=O)N3CCN(CC)CC3)CC[C@]3(C)[C@H](CC[C@@H]4[C@@](C)(CCC(=O)N5CCN(CC)CC5)[C@H](C(=C)C)CC[C@]43C)[C@@H]12	A498 renal	true
CCN1CCN(C(=O)[C@]23CCC(C)(C)C[C@@H]2C2=CC[C@@H]4[C@@]5(C)C/C(=C/c6ccncc6)C(=O)C(C)(C)[C@@H]5CC[C@@]4(C)[C@]2(C)CC3)CC1	A498 renal	false
c1ccc(CN2C(c3ccccc3)=Nc3ccccc3C2c2c[nH]c3ccccc23)cc1 (configuration not stated)	A498 renal	false
COc1ccc(-c2nc3ncccn3c2-c2nc3ccc(Br)cc3[nH]2)cc1	A498 renal	true
COc1ccc(/C(=C\c2ccc3c(c2)OCO3)C(=O)Nc2nc3ccccc3s2)cc1OC	A498 renal	true
COc1ccc2c(c1)c(-c1nc(-c3c[nH]c4ncccc34)cs1)cn2CCNC(=O)OC(C)(C)C	A498 renal	true
O=C(N/N=C\c1c(O)ccc2ccccc12)C1CC1	A498 renal	true
CCC(c1ccc(OC)cc1)C(CC)c1ccc(O)c(CN2CCCCC2)c1 (configuration not stated)	A498 renal	true
Fc1ccc(NCc2nnc(-c3ccc(Cl)cc3)o2)cc1	A498 renal	true
CC(c1ccccc1)N1C(=O)C(C2SC(=S)N(C(C)c3ccccc3)C2=O)SC1=S (configuration not stated)	A498 renal	true
C=C1C(=O)O[C@H]2[C@H]1CC/C(Cn1cc(-c3ccc(F)cc3)nn1)=C\CC[C@@]1(C)O[C@@H]21	A498 renal	false
O=C1c2cccc3cccc(c23)C(=O)N1CC#Cc1ccc2c3c(cccc13)C(=O)N(CCO)C2=O	A498 renal	true
C=COCCCCCCCCCCCCCCCCCC	A498 renal	true
COc1cccc(-c2nn(-c3ccccc3)cc2-c2ccnc(NCCCNS(=O)(=O)c3ccc(C(F)(F)F)cc3)c2)c1	A498 renal	false
COC(=O)CCCCCn1c2ccccc2c2c3c(c4c5ccccc5[nH]c4c21)C(=O)N(O)C3=O	A498 renal	false
Clc1ccc2c(NCCNc3nc(-c4ccccc4)cc(-c4ccccc4)n3)ccnc2c1	A498 renal	true
Cc1cccc(C)c1NC(=O)CSC(=S)N1CCN(CCOCCO)CC1	A498 renal	true
O=C1CCN2C(=O)Nc3ccccc3C2C1 (configuration not stated)	A498 renal	true
CCOc1ccc(NC(=O)c2ccccc2-c2ccccc2C(=O)O)cc1	A498 renal	true
COc1cnc2c(c1)C(=O)c1c-2n(CCCNC2=NCCS2)c(=O)c2cc([N+](=O)[O-])ccc12	A498 renal	false
COc1ccc(/C=C/C(=O)NCCO)cc1	A498 renal	true
O=C1C=Cc2ncccc2C1=O	A498 renal	true
CCN(CC)CCCCCNc1cc(OC(=O)c2ccccc2)cc2cccnc12	A498 renal	true
COc1ccc(-c2n[nH]nc2-c2cc3ccccc3s2)cc1O	A498 renal	false
Cc1cc(N2CCOCC2)nc(N(CCCNc2ccnc3cc(Cl)ccc23)Cc2ccco2)n1	A498 renal	false
Cc1cc(N2CCN(C)CC2)nc(N(CCNc2ccnc3cc(Cl)ccc23)Cc2ccco2)n1	A498 renal	true
CC(=O)Oc1ccccc1C(=O)/C=C/c1cccc([N+](=O)[O-])c1	A498 renal	true
COc1cc(/C=C/c2cc(/C=C/c3ccc(O)c(OC)c3)n(-c3ccc(Cl)cc3)c(=O)n2)ccc1O	A498 renal	true
COc1cc(NC(C)CN(CC(C)C)C(C)C)c2ncccc2c1 (configuration not stated)	A498 renal	true
COc1cc(/C=N/NC(=S)NNC(=S)NC2CCCCC2)cc(OC)c1OC	A498 renal	true
N#CC1=C(N)Oc2c(c(N)nn2-c2ccccc2)C1c1ccc(Cl)cc1Cl (configuration not stated)	A498 renal	true
O=C(N/N=C/c1ccccc1SSc1ccccc1/C=N/NC(=O)c1ccccc1)c1ccccc1	A498 renal	true
Nc1c2c(nc3ccc(Cl)cc13)CC(c1ccccc1)CC2=O (configuration not stated)	A498 renal	false
